# System: Staphylococcus aureus (Isolate ID ATCC 29213)
# protocol.summary: Bacterial assay: MIC by broth microdilution or agar dilution (CLSI), S. aureus ATCC 29213
# Type: cell-based
# protocol.conditions: Staphylococcus aureus, ATCC29213, read-out: S. aureus MIC (μg/mL) Activity Range, S. aureus (ATCC29213)
# Experimental: Compounds are tested for antimicrobial activity by susceptibility testing in liquid or on solid media. […] Compound MICs were determined to be in the following activity ranges “A” activity≦0.25 μg/mL; “B” activity>0.25 μg/mL-1.0 μg/mL; “C” activity>1.0 μg/mL-16 μg/mL; “D” activity>16 μg/mL and ND=not determined. […]
MIC values for the compounds below.

{"columns": ["compound", "experimental.system", "MIC"],
 "data": [
  ["C=CCc1oc(C(C)Oc2ccc(F)c(C(N)=O)c2F)nc1-c1ccc(OC(F)(F)F)cc1 (centres unmarked)", "Staphylococcus aureus (Isolate ID ATCC 29213)", "0.25 to 1 µg/mL"],
  ["C[C@@H](Oc1cccc(C(N)=O)c1F)c1nc(-c2ccc(C(F)(F)F)cc2)c(Br)o1", "Staphylococcus aureus (Isolate ID ATCC 29213)", "1 to 16 µg/mL"],
  ["CN(C)CC(=O)OCC(Oc1ccc(F)c(C(N)=O)c1F)c1nc(-c2ccc(C(F)(F)F)cc2)c(Br)o1 (centres unmarked)", "Staphylococcus aureus (Isolate ID ATCC 29213)", "0.25 to 1 µg/mL"],
  ["NC(=O)OCC(Oc1ccc(F)c(C(N)=O)c1F)c1nc(-c2ccc(C(F)(F)F)cc2)c(Cl)o1 (centres unmarked)", "Staphylococcus aureus (Isolate ID ATCC 29213)", "0.25 to 1 µg/mL"],
  ["COc1cccc(-c2nc(C(COC(C)=O)Oc3ccc(F)c(C(N)=O)c3F)oc2Br)c1 (centres unmarked)", "Staphylococcus aureus (Isolate ID ATCC 29213)", "> 16 µg/mL"]
]}

Field MIC (Staphylococcus aureus (Isolate ID ATCC 29213)), entry CCOC(=O)C(Oc1ccc(F)c(C(N)=O)c1F)c1nc(-c2ccc(Cl)cc2)co1 (centres unmarked) : 1 to 16 µg/mL

Here Cc1ccc(-c2nc(C(CO)Oc3ccc(F)c(C(N)=O)c3F)oc2Br)cn1 (centres unmarked) was tested on Staphylococcus aureus (Isolate ID ATCC 29213), and its MIC came to > 16 µg/mL

Tested on Staphylococcus aureus (Isolate ID ATCC 29213), the item C=CC(Oc1ccc(F)c(C(N)=O)c1F)c1nc(-c2ccc(C(F)(F)F)cc2)c(Br)o1 (centres unmarked) showed MIC equal to 1 to 16 µg/mL
